biological target: cytoplasmic domain of VraS (VraS-C) (Staphylococcus aureus); test: biochemical; type: binding; conditions: new run with His-tagged VraS; NB = No Binding; read-out: KD VraS
Sequence (Q99SZ7 70-347): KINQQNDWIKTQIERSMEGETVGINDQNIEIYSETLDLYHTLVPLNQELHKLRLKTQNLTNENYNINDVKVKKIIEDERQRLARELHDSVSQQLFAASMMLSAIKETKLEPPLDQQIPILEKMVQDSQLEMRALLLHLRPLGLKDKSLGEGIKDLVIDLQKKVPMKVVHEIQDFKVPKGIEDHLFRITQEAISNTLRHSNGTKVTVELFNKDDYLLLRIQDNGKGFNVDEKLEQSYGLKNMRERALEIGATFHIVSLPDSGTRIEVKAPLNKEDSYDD
metric name: Kd

Observe how each entry below is paired with its result.
compound: O=C(Nc1nnc(-c2ccc(Br)cc2)o1)c1ccc(Cl)s1
Kd: 79.5 µM

compound: COc1cccc(-c2nnc(NC(=O)c3cccc(F)c3)o2)c1
Kd: > 100 µM

compound: O=C(Nc1nnc(-c2ccccc2Cl)o1)c1nc2ccccc2s1
Kd: 19.6 µM

compound: COc1cccc(-c2nnc(NC(=O)c3ccc(Cl)s3)o2)c1
Kd: > 100 µM

compound: O=C(Nc1nnc(-c2cc(Cl)ccc2Cl)o1)c1ccc(Cl)s1
Kd: > 100 µM

compound: O=C(Nc1nnc(-c2ccccc2Cl)o1)c1cccc(C(F)(F)F)c1
Kd: 25.8 µM

Hello, I would appreciate it if you could give Kd for each entry below.
1. Cc1ccc(-c2nnc(NC(=O)c3nc4ccccc4s3)o2)c(C)c1
2. O=C(Nc1nnc(-c2ccc(F)cc2)o1)c1nc2ccccc2s1

Resp:
1: > 100 µM; 2: > 100 µM

Hello, I would appreciate it if you could give Kd for each entry below.
1. Cc1ccc(-c2nnc(NC(=O)c3ccccc3Cl)o2)c(C)c1
2. O=C(Nc1nnc(-c2ccccc2Cl)o1)c1cccc(Oc2ccccc2)c1
3. Cc1cc2c(C(C)C)c(O)c(O)c(C=O)c2c(O)c1-c1c(C)cc2c(C(C)C)c(O)c(O)c(C=O)c2c1O [Gos, Gossypol, reference compound]
4. O=C(Nc1nnc(-c2ccc3c(c2)CCCC3)o1)c1cccc(C(F)(F)F)c1
5. Cc1cc(/C=C/c2ccc3cc(N(C)C)ccc3[n+]2C)c(C)n1-c1ccccc1
6. O=C(Nc1nnc(-c2cc(Cl)sc2Cl)o1)c1nc2ccccc2s1
7. O=C(Nc1nnc(-c2ccc(Br)cc2)o1)c1cccc(C(F)(F)F)c1

Resp:
1: > 100 µM; 2: > 100 µM; 3: > 100 µM; 4: > 100 µM; 5: 21.3 µM; 6: 69.6 µM; 7: > 100 µM

Hello, I would appreciate it if you could give Kd for each entry below.
1. Cc1ccc(C)c(-c2nnc(NC(=O)c3nc4ccccc4s3)o2)c1
2. O=C(Nc1nnc(-c2ccc(Br)cc2)o1)c1sc2ccccc2c1Cl

Resp:
1. > 100 µM
2. > 100 µM

Req: Using the record for `Cc1ccc(C)c(-c2nnc(NC(=O)c3ccccc3F)o2)c1` , report its Kd.
Resp: > 100 µM
